inhibition values, listed per item
ASSAYED_TARGET: Aurora kinase B (Homo sapiens) (UniProt Q96GD4)
Sequence (Q96GD4 whole entry): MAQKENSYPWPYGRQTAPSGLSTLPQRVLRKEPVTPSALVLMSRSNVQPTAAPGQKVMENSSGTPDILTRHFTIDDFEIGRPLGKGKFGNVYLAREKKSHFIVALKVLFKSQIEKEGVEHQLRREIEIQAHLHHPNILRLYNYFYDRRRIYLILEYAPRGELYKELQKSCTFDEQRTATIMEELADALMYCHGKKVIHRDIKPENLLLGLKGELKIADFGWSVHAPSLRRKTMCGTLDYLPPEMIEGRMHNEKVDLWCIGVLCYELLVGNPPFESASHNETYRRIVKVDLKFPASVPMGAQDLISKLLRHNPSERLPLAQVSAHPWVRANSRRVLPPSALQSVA
PROTOCOL_NOTES: Inhibition of AURB (unknown origin) at 50 nM by Z'LYTE screening method relative to control
Write the value in % as a bare number.

O=c1c2ccccc2[se]n1-c1nc(Nc2ccccc2)c2nc[nH]c2n1 :: 1
O=c1c2ccccc2sn1-c1nc(NC2CCSC2)c2nc[nH]c2n1 (stereo not given) :: 7

(Q) Quick one: inhibition for CCCNc1nc(-n2[se]c3ccccc3c2=O)nc2[nH]cnc12 ?
(A) 2

(Q) Quick one: inhibition for CCN(CC)CCCC(C)Nc1nc(N2Cc3ccccc3C2=O)nc2[nH]cnc12 (stereo not given) ?
(A) 5

(Q) Quick one: inhibition for C[C@@H]1[C@H]2C[C@@H](C[C@H]1Nc1nc(-n3[se]c4ccccc4c3=O)nc3[nH]cnc13)C2(C)C ?
(A) 6

====

ASSAYED_TARGET: Ribosomal protein S6 kinase alpha-1 (Homo sapiens) (UniProt Q15418)
Sequence (Q15418 whole entry): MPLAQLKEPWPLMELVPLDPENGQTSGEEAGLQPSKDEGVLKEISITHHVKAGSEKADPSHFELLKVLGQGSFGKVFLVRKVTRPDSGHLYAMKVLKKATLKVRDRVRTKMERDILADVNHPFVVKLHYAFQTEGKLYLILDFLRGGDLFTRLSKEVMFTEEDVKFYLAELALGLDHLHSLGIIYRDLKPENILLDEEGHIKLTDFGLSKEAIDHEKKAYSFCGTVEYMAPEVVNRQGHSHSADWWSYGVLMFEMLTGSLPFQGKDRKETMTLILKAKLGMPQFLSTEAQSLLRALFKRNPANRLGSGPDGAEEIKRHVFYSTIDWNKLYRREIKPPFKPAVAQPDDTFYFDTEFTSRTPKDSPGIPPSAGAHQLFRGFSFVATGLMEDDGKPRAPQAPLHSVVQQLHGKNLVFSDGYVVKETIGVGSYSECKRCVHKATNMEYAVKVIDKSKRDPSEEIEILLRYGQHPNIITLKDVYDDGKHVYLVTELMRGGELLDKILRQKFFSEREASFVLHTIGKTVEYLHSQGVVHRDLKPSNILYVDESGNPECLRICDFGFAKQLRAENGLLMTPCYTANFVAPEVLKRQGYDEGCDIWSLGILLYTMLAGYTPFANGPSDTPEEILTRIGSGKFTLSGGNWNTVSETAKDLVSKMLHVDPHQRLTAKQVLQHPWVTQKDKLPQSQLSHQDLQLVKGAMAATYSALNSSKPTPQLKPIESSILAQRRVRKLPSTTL
PROTOCOL_NOTES: Inhibition of RPS6KA1 (unknown origin) at 50 nM by Z'LYTE screening method relative to control
inhibition values, listed per item
Write the value in % as a bare number.

O=C1c2ccccc2CN1c1nc(NC2CCCCC2)c2nc[nH]c2n1 :: 2
CCCNc1nc(-n2[se]c3ccccc3c2=O)nc2[nH]cnc12 :: 0
O=c1c2ccccc2[se]n1-c1nc(NC2CCCCC2)c2nc[nH]c2n1 :: 2
C[C@@H]1[C@H]2C[C@@H](C[C@H]1Nc1nc(-n3[se]c4ccccc4c3=O)nc3[nH]cnc13)C2(C)C :: 0
O=c1c2ccccc2[se]n1-c1nc(N[C@H]2CCOC2)c2nc[nH]c2n1 :: 5
O=c1c2ccccc2[se]n1-c1nc(Nc2ccccc2)c2nc[nH]c2n1 :: 0
O=c1c2ccccc2[se]n1-c1nc(N[C@@H]2C[C@H]3CC[C@@H]2C3)c2nc[nH]c2n1 :: 0
CCN(CC)CCCC(C)Nc1nc(N2Cc3ccccc3C2=O)nc2[nH]cnc12 (configuration not stated) :: 0

(Q) // fetch Ribosomal protein S6 kinase alpha-1 (Homo sapiens) (UniProt Q15418) inhibition for O=c1c2ccccc2[se]n1-c1nc(N[C@H]2CC[Se]C2)c2nc[nH]c2n1
(A) 5

====

inhibition values, listed per item
ASSAYED_TARGET: ALK tyrosine kinase receptor (Homo sapiens) (UniProt Q9UM73)
Sequence (Q9UM73 19-1620 limits assumed): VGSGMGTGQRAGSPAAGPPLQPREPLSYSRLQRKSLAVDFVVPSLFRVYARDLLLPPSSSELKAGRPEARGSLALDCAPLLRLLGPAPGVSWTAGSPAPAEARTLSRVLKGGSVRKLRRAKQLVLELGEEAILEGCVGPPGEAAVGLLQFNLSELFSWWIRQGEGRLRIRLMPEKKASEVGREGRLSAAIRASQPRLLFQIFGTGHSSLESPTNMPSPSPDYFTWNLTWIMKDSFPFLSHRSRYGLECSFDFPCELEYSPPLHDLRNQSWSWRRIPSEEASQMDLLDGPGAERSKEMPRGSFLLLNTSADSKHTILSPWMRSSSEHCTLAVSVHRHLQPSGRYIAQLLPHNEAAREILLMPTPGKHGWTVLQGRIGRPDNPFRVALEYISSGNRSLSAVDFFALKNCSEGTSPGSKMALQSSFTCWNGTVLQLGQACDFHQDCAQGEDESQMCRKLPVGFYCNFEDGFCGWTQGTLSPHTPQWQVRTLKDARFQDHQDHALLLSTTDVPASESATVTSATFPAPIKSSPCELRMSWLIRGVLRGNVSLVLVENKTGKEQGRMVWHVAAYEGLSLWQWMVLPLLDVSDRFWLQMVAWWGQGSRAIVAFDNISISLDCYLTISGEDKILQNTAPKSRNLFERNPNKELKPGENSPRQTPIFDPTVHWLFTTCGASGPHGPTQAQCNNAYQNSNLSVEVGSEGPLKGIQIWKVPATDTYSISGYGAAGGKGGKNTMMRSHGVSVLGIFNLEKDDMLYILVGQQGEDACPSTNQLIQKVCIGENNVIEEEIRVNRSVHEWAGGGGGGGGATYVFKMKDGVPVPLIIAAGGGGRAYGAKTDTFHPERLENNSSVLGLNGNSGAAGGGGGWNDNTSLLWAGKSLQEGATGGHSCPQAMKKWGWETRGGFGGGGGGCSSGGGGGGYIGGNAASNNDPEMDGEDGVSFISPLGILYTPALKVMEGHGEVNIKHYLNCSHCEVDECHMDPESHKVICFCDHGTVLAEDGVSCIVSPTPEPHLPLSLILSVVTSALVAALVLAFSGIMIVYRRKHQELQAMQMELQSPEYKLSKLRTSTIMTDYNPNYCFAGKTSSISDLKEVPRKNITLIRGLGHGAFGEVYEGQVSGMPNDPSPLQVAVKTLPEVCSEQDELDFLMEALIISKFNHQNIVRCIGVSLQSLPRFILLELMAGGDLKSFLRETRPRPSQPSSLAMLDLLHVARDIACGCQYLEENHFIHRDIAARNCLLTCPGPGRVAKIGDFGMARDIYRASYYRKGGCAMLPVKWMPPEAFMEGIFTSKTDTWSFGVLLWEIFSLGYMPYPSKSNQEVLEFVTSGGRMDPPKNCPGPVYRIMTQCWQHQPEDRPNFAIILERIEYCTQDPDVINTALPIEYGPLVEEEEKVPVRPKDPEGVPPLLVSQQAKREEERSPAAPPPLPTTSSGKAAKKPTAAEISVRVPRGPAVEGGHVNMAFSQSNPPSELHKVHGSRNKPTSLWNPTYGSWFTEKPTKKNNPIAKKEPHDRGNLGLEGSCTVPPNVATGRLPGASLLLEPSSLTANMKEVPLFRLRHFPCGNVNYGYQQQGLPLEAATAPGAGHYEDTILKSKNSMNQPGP
PROTOCOL_NOTES: Inhibition of ALK (unknown origin) at 50 nM by Z'LYTE screening method relative to control
Write the value in % as a bare number.

The cases that follow already have their inhibition on record.
CCN(CC)CCCC(C)Nc1nc(N2Cc3ccccc3C2=O)nc2[nH]cnc12 (stereo not given) :: 0
O=C1c2ccccc2CN1c1nc(N[C@H]2CC[Se]C2)c2nc[nH]c2n1 :: 0
O=c1c2ccccc2[se]n1-c1nc(N[C@H]2CCOC2)c2nc[nH]c2n1 :: 1
O=c1c2ccccc2[se]n1-c1nc(N[C@H]2CC[Se]C2)c2nc[nH]c2n1 :: 0

Attention now shifts to the item below.
(Q) // fetch ALK tyrosine kinase receptor (Homo sapiens) (UniProt Q9UM73) inhibition for CCN(CC)CCCC(C)Nc1nc(-n2[se]c3ccccc3c2=O)nc2[nH]cnc12 (stereo not given)
(A) 2

====

ASSAYED_TARGET: Tyrosine-protein kinase SYK (Homo sapiens) (UniProt P43405)
PROTOCOL_NOTES: Inhibition of SYK (unknown origin) at 50 nM by Z'LYTE screening method relative to control
inhibition values, listed per item
Write the value in % as a bare number.

The cases that follow already have their inhibition on record.
CCCNc1nc(-n2[se]c3ccccc3c2=O)nc2[nH]cnc12 :: 2
CCN(CC)CCCC(C)Nc1nc(N2Cc3ccccc3C2=O)nc2[nH]cnc12 (configuration not stated) :: 2
C[C@@H]1[C@H]2C[C@@H](C[C@H]1Nc1nc(-n3[se]c4ccccc4c3=O)nc3[nH]cnc13)C2(C)C :: 1
O=c1c2ccccc2[se]n1-c1nc(N[C@@H]2C[C@H]3CC[C@@H]2C3)c2nc[nH]c2n1 :: 3

(Q) Quick one: inhibition for O=C1c2ccccc2CN1c1nc(NC2CCCC2)c2nc[nH]c2n1 ?
(A) 1

(Q) Quick one: inhibition for O=c1c2ccccc2[se]n1-c1nc(NC2CCCCC2)c2nc[nH]c2n1 ?
(A) 5

(Q) Quick one: inhibition for O=C1c2ccccc2CN1c1nc(N[C@H]2CC[Se]C2)c2nc[nH]c2n1 ?
(A) 1

(Q) Quick one: inhibition for CCN(CC)CCCC(C)Nc1nc(-n2[se]c3ccccc3c2=O)nc2[nH]cnc12 (configuration not stated) ?
(A) 4

(Q) Quick one: inhibition for O=c1c2ccccc2[se]n1-c1nc(N[C@H]2CC[Se]C2)c2nc[nH]c2n1 ?
(A) 0

(Q) Quick one: inhibition for O=c1c2ccccc2[se]n1-c1nc(N[C@H]2CCOC2)c2nc[nH]c2n1 ?
(A) 2

(Q) Quick one: inhibition for O=c1c2ccccc2[se]n1-c1nc(Nc2ccccc2)c2nc[nH]c2n1 ?
(A) 0

(Q) Quick one: inhibition for O=C1c2ccccc2CN1c1nc(NC2CCCCC2)c2nc[nH]c2n1 ?
(A) 3

====

ASSAYED_TARGET: Fibroblast growth factor receptor 1 (Homo sapiens) (UniProt P11362)
Sequence (P11362 22-822 limits assumed): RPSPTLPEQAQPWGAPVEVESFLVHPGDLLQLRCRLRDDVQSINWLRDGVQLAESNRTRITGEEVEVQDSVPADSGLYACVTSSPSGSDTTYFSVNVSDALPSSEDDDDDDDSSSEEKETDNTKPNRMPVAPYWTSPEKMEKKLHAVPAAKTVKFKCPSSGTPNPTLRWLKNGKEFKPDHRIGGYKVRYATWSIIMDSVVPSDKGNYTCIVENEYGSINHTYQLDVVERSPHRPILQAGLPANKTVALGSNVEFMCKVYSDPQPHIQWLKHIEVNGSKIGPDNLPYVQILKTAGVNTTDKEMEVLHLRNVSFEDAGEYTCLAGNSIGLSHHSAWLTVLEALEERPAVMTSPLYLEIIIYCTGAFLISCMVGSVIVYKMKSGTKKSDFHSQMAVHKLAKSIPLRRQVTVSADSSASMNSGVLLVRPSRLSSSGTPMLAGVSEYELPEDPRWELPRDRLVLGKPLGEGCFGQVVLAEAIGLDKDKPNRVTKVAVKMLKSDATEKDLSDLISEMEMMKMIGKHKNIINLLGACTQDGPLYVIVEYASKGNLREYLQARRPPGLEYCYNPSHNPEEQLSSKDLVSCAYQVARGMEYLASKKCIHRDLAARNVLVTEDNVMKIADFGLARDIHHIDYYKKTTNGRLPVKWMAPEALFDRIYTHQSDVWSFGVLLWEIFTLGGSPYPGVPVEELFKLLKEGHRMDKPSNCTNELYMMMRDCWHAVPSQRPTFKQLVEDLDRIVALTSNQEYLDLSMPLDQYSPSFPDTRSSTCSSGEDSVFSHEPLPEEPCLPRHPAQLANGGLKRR
PROTOCOL_NOTES: Inhibition of FGFR1 (unknown origin) at 50 nM by Z'LYTE screening method relative to control
MEASURE_NAME: inhibition (%)
Write the value in % as a bare number.

The cases that follow already have their inhibition on record.
CCCNc1nc(-n2[se]c3ccccc3c2=O)nc2[nH]cnc12 :: 0
O=C1c2ccccc2CN1c1nc(N[C@H]2CC[Se]C2)c2nc[nH]c2n1 :: 0
C[C@@H]1[C@H]2C[C@@H](C[C@H]1Nc1nc(-n3[se]c4ccccc4c3=O)nc3[nH]cnc13)C2(C)C :: 0
O=c1c2ccccc2[se]n1-c1nc(N[C@H]2CC[Se]C2)c2nc[nH]c2n1 :: 0
O=C1c2ccccc2CN1c1nc(NC2CCCC2)c2nc[nH]c2n1 :: 0

(Q) Quick one: inhibition for CCN(CC)CCCC(C)Nc1nc(N2Cc3ccccc3C2=O)nc2[nH]cnc12 (centres undefined) ?
(A) 0

(Q) Quick one: inhibition for O=c1c2ccccc2[se]n1-c1nc(Nc2ccccc2)c2nc[nH]c2n1 ?
(A) 0

(Q) Quick one: inhibition for O=c1c2ccccc2[se]n1-c1nc(N[C@@H]2C[C@H]3CC[C@@H]2C3)c2nc[nH]c2n1 ?
(A) 0

(Q) Quick one: inhibition for O=c1c2ccccc2[se]n1-c1nc(N[C@H]2CCOC2)c2nc[nH]c2n1 ?
(A) 0

====

ASSAYED_TARGET: Proto-oncogene tyrosine-protein kinase receptor Ret (Homo sapiens)
PROTOCOL_NOTES: Inhibition of RET (unknown origin) at 50 nM by Z'LYTE screening method relative to control
MEASURE_NAME: inhibition (%)
Write the value in % as a bare number.

The cases that follow already have their inhibition on record.
O=C1c2ccccc2CN1c1nc(NC2CCCC2)c2nc[nH]c2n1 :: 2
CCCNc1nc(-n2[se]c3ccccc3c2=O)nc2[nH]cnc12 :: 0

(Q) Quick one: inhibition for O=c1c2ccccc2[se]n1-c1nc(Nc2ccccc2)c2nc[nH]c2n1 ?
(A) 4

(Q) Quick one: inhibition for O=c1c2ccccc2[se]n1-c1nc(N[C@H]2CC[Se]C2)c2nc[nH]c2n1 ?
(A) 7

(Q) Quick one: inhibition for C[C@@H]1[C@H]2C[C@@H](C[C@H]1Nc1nc(-n3[se]c4ccccc4c3=O)nc3[nH]cnc13)C2(C)C ?
(A) 2

(Q) Quick one: inhibition for CCN(CC)CCCC(C)Nc1nc(-n2[se]c3ccccc3c2=O)nc2[nH]cnc12 (configuration not stated) ?
(A) 1

(Q) Quick one: inhibition for O=C1c2ccccc2CN1c1nc(NC2CCCCC2)c2nc[nH]c2n1 ?
(A) 10

====

ASSAYED_TARGET: UniProt P05771
Sequence (P05771 2-671 limits assumed): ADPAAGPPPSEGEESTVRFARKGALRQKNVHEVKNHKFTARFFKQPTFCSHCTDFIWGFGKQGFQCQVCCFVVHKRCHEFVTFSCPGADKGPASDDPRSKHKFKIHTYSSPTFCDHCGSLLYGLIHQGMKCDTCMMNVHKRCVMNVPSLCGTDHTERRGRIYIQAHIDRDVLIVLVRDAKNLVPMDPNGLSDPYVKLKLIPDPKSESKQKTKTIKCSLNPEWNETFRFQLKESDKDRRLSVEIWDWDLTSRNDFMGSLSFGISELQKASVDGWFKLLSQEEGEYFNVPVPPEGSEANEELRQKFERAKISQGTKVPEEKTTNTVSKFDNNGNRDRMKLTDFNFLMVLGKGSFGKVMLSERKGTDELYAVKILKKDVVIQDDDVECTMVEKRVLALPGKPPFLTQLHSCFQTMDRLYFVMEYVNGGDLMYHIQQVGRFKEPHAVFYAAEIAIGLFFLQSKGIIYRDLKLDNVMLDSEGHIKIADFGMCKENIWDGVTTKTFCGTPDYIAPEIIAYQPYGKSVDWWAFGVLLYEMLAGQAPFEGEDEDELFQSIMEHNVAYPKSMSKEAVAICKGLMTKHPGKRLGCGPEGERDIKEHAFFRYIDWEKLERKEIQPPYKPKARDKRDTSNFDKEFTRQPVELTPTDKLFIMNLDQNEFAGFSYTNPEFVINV
PROTOCOL_NOTES: Inhibition of PKCbeta2 (unknown origin) at 50 nM by Z'LYTE screening method relative to control
inhibition values, listed per item
Write the value in % as a bare number.

(Q) Quick one: inhibition for O=c1c2ccccc2[se]n1-c1nc(Nc2ccccc2)c2nc[nH]c2n1 ?
(A) 28

(Q) Quick one: inhibition for CCN(CC)CCCC(C)Nc1nc(N2Cc3ccccc3C2=O)nc2[nH]cnc12 (centres undefined) ?
(A) 25

(Q) Quick one: inhibition for O=C1c2ccccc2CN1c1nc(NC2CCCC2)c2nc[nH]c2n1 ?
(A) 9

(Q) Quick one: inhibition for CCN(CC)CCCC(C)Nc1nc(-n2[se]c3ccccc3c2=O)nc2[nH]cnc12 (centres undefined) ?
(A) 12

====

ASSAYED_TARGET: Hepatocyte growth factor receptor (Homo sapiens) (UniProt P08581)
PROTOCOL_NOTES: Inhibition of cMet (unknown origin) at 50 nM by Z'LYTE screening method relative to control
inhibition values, listed per item
Write the value in % as a bare number.

(Q) Quick one: inhibition for O=c1c2ccccc2[se]n1-c1nc(NC2CCCCC2)c2nc[nH]c2n1 ?
(A) 0
